From: paper PMC9482650

Target Or System: SCRIB_2, Q14160
Sequence (Q14160 857-960): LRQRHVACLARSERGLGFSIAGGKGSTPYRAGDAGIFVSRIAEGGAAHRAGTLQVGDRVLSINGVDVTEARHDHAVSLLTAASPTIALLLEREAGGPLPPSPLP
Assay Summary: holdup assay
Parameters: key: below the threshold = too weak to quantify, mostly under pKd 3.1 to 4
Test Conditions: plain residues with an end cap or a label only (N-terminal biotin on a linker: ttds)
Measurement Name: pKd
Provide a numeric answer; units are not to be included.

Query: Give the measured pKd of QSARYRDTEL [TJP2, Q9UDY2] .
Result: 3.9

Query: Now the binder ERKLSSESQV [LRP4, O75096]
Result: 3.66

Query: Now the binder SRPQRTQTQV [HPV67-E6, A4U7F2]
Result: 3.4

Query: Now the binder STLTIFETAL [ABCC4, O15439]
Result: 4.92

Query: Now the binder RSLEEEESQL [GRASP, Q7Z6J2]
Result: 3.87

Query: Now the binder PKTPPTDTSV [KIR3DL3, Q8N743]
Result: 4.08
